- protocol: Precipitation of 2-(2-hydroxyphenyl)benzenesulfinic acid from acidified HPBS solution; supernatant concentration by HPLC and redissolution
- Assay type: physicochemical
- condition context: water; pH 1.2, ambient temperature; concentrated (>50 mM) HPBS, sulfuric acid; HPLC; read-out: supernatant HPBS concentration after precipitation
measurement name: solubility

Need solubility, item O=S(O)c1ccccc1-c1ccccc1O [HPBS, 2-(2'-hydroxyphenyl)benzenesulfinate]
5 to 8 µM
